Target: Gastricsin (Rattus norvegicus, UniProt P04073)
Sequence (P04073 whole entry): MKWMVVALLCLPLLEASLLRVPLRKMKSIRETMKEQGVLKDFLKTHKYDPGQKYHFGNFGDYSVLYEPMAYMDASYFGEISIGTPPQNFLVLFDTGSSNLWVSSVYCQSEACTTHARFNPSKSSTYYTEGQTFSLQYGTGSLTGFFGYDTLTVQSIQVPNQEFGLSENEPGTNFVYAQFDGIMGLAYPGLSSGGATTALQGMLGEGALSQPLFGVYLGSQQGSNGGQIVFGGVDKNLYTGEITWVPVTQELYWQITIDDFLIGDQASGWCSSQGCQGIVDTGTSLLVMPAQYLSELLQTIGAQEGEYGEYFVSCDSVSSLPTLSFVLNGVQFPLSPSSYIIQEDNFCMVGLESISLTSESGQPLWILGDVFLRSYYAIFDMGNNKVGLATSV
Assay: ChEBML_154148
readout-kind: Ki (nM)
Answers are plain numbers, in nM.

Hi! What's the reported Ki for CCC(NC(=O)[C@H](C)NC(=O)[C@H](C)C[C@H](O)[C@H](CC(C)C)NC(=O)[C@@H](NC(=O)CC(C)C)C(C)C)C(=O)O (stereo partly specified) on Gastricsin (Rattus norvegicus, UniProt P04073)?
3
